B1: Histone-lysine N-methyltransferase SETD2, residues 2382 to 2430; numbered along this chain, Q9BYW2 (parent)
chain: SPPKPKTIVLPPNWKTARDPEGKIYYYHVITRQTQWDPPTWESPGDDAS

# Variants of: B1
# method: abundance fitness (aPCA) (normalised: wild type 0, dead -1); higher = more abundant; growth selection in yeast, the domain comes from the species named
# reported-conditions: Homo sapiens
reported-metric: abundance fitness
The reply should be a number, written without any unit.

See these solved cases before continuing.
{"variant-name": "Y27T", "abundance fitness": -0.185}
{"variant-name": "P44H", "abundance fitness": 0.036}
{"variant-name": "D19R", "abundance fitness": -0.535}
{"variant-name": "Y26L", "abundance fitness": -0.878}
{"variant-name": "S43H", "abundance fitness": -0.237}

Problem: What value of abundance fitness has been reported for the following variant? T7E
Result: -0.045

Problem: What value of abundance fitness has been reported for the following variant? T7L
Result: -0.214
